# method_summary: Probe fluorescence ratio response to stearic acid relative to ADIFAB2
# Assay type: binding
# stated_conditions: response relative to ADIFAB2
Binary call on DR/DR SA: Met from 0.5 upward, Not met beneath that.

molecule: 38W 106H 117A 72A (protein, listed as Rattus norvegicus, PEPTIDE (1)...(131) wild-type rat intestinal fatty acid binding protein) AFDGTWKVDRNENYEKFMEKMGINVVKRKLGAHDNLKWTITQEGNKFTVKESSNFRNIDVVFELGVDFAYSAADGTELTGTWTMEGNKLVGKFKRVDNGKELIAVHEISGNELIQTATYEGVEAKRIFKKE
group_label: Not met
//
molecule: 38Y 62W 117A 72A (protein, listed as Rattus norvegicus, PEPTIDE (1)...(131) wild-type rat intestinal fatty acid binding protein) AFDGTWKVDRNENYEKFMEKMGINVVKRKLGAHDNLKYTITQEGNKFTVKESSNFRNIDVVWELGVDFAYSAADGTELTGTWTMEGNKLVGKFKRVDNGKELIAVREISGNELIQTATYEGVEAKRIFKKE
group_label: Met
//
molecule: 18I 31L 73G 72A (protein, listed as Rattus norvegicus, PEPTIDE (1)...(131) wild-type rat intestinal fatty acid binding protein) AFDGTWKVDRNENYEKFIEKMGINVVKRKLLAHDNLKLTITQEGNKFTVKESSNFRNIDVVFELGVDFAYSAGDGTELTGTWTMEGNKLVGKFKRVDNGKELIAVREISGNELIQTYTYEGVEAKRIFKKE
group_label: Not met
//
molecule: 38H 62W 106V 117A 72A (protein, listed as Rattus norvegicus, PEPTIDE (1)...(131) wild-type rat intestinal fatty acid binding protein) AFDGTWKVDRNENYEKFMEKMGINVVKRKLGAHDNLKHTITQEGNKFTVKESSNFRNIDVVWELGVDFAYSAADGTELTGTWTMEGNKLVGKFKRVDNGKELIAVVEISGNELIQTATYEGVEAKRIFKKE
group_label: Met
